- System tested: Mrp3 (ATP-binding cassette sub-family C member 3) (Rattus norvegicus, UniProt O88563)
- Assay explanation: TP_TRANSPORTER: inhibition of Taurocholate uptake (Taurochorate: 1.2 uM, E217betaG: 200 uM) in membrane vesicles isolated from Mrp3-expressing LLC-PK1 cells
- Type: functional, cell membranes, Membrane vesicle
- Parameters: scale not given: the % may be the effect or the level left
- Measurement parameters: pig, probe taurocholate, read-out: Activity
Property: activity at 200 µM (%)
Supply the numeric figure in %, leaving out any unit text.

Q: Param request: activity at 200 µM | system Mrp3 (ATP-binding cassette sub-family C member 3) (Rattus norvegicus, UniProt O88563) | item C[C@]12CC[C@@H]3c4ccc(O)cc4CC[C@H]3[C@@H]1CC[C@@H]2O[C@@H]1O[C@H](C(=O)O)[C@@H](O)[C@H](O)[C@H]1O [ESTRADIOL 17B GLUCURONIDE]
Ans: 78.4

###

- System tested: Mrp3 (ATP-binding cassette sub-family C member 3) (Rattus norvegicus, UniProt O88563)
- Assay explanation: TP_TRANSPORTER: inhibition of Taurocholate uptake (TCDC-S: 50 uM) in membrane vesicles isolated from Mrp3-expressing LLC-PK1 cells
- Assay type: functional, cell membranes, Membrane vesicle
- Design: scale not given: the % may be the effect or the level left
- Measurement parameters: pig, probe taurocholate, read-out: Activity
Structures can show the parent of a compound that is named as a salt.
Property: activity at 50 µM (%)
Just the number in %, nothing appended.

Q: Identify measured activity at 50 µM associated with C[C@H](CCC(=O)NCCS(=O)(=O)O)C1CC[C@H]2[C@@H]3[C@H](O)C[C@@H]4C[C@H](OS(=O)(=O)O)CC[C@]4(C)[C@H]3CC[C@]12C (stereo partly specified) [TAUROCHENODEOXYCHOLATE SULFATE]
Ans: 27.8

###

- System tested: ATP-binding cassette sub-family C member 3 (MRP3) (Rattus norvegicus, UniProt O88563)
- Sequence (O88563 whole entry): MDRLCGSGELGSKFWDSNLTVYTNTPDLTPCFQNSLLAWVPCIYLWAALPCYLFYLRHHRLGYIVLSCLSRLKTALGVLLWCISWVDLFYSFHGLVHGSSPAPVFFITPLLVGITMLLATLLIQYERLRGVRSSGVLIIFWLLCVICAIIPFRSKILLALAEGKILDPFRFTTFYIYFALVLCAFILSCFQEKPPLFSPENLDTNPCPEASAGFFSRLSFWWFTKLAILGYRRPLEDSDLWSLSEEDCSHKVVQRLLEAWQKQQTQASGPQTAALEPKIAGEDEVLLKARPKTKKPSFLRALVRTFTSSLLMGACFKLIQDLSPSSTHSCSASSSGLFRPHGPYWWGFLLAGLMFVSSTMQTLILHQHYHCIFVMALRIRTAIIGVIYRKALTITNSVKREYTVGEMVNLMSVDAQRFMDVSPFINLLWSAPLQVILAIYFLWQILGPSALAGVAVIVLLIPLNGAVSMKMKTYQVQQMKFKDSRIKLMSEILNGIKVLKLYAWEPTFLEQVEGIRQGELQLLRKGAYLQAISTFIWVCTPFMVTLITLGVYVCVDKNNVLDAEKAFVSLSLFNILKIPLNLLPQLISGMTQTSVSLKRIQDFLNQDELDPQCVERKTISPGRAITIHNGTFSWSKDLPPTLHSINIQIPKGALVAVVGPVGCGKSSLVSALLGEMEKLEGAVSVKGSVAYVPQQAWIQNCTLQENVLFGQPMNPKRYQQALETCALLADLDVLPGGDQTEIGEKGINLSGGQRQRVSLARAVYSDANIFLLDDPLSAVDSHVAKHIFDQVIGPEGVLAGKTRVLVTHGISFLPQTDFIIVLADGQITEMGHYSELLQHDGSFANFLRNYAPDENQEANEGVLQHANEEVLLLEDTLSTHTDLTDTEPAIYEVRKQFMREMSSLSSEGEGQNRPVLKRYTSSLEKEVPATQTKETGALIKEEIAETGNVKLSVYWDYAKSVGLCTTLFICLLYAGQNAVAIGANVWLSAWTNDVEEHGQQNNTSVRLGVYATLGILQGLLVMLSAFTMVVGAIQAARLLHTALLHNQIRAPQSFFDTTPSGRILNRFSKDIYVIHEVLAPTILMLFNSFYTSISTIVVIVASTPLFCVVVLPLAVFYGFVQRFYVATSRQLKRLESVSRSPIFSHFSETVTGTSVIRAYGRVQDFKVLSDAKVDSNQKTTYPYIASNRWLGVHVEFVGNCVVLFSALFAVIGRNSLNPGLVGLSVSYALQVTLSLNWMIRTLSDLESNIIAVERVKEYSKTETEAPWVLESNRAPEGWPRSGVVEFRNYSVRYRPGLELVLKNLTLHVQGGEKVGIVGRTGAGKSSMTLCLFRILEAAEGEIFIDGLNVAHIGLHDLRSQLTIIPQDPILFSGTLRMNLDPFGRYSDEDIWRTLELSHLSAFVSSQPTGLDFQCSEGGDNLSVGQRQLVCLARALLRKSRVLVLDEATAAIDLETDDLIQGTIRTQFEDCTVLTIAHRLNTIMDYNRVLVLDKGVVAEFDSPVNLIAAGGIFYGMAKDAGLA
- Assay explanation: TP_TRANSPORTER: inhibition of E217betaG uptake (E217betaG: 0.055 uM, GC: 200 uM) in membrane vesicles from LLC-PK1 cells
- Type: functional, cell membranes, Membrane vesicle
- Parameters: scale not given: the % may be the effect or the level left
- Measurement parameters: pig, probe E217betaG, read-out: Activity
Property: activity at 200 µM
Number first, unit second: that is the form wanted.

Q: Name the recorded activity at 200 µM of the item C[C@H](CCC(=O)NCC(=O)O)[C@H]1CC[C@H]2[C@@H]3[C@H](O)C[C@@H]4C[C@H](O)CC[C@]4(C)[C@H]3C[C@H](O)[C@]12C [GLYCOCHOLIC ACID] in your answer.
Ans: 13.9%

###

- System tested: Mrp3 (ATP-binding cassette sub-family C member 3) (Rattus norvegicus)
- Assay explanation: TP_TRANSPORTER: uptake in membrane vesicles isolated from Mrp3-expressing LLC-PK1 cells
- Assay type: functional, cell membranes, Membrane vesicle
- Measurement parameters: pig, membrane vesicles from Mrp3-expressing LLC-PK1 cells
Property: Km (µM)
Give just the numeric value; µM need not be written.

Q: Quote Km reported for C[C@H](CCC(=O)NCCS(=O)(=O)O)C1CC[C@H]2[C@@H]3CC[C@@H]4C[C@H](OS(=O)(=O)O)CC[C@]4(C)[C@H]3CC[C@]12C (stereo partly specified) please.
Ans: 3.06
